Measured values drawn from patent US20250027068 for this set.

Target: pooled human IgG
REPORTED PROPERTY: Enzyme Activity Endpoint Assay (purified): scIgG (ng/µL)
Numbers only, in ng/µL.

// below: answered proteins
* PRT-622 (protein) MQITSVWTKGVTPLTPEQFRYNNEDVIHAPYLAHQGWYDITKAFDGKDNLLCGAATAGNMLHWWFDQNKTEIEAYLSKHPEKQKIIFNNQELFDLKAAIDTKDSQTNSQLFNYFRDKAFPNLSARQLGVMPDLVLDMFINGYYLNVFKTQSTDVNRPYQDKDKRGGIFDAVFTRGDQTTLLTARHDLKNKTLKEISDIIKQELQSGRALALSHTYANVSISHVINLWGADFNSEGNLIAIYVTDSDANASIGMKKYFVGINAHGHVAISAKKIEGENIGAQVLGLFTLSSGKDIWQKLSLEHHHHHH | 0
* PRT-305 (protein) MVTSVWTKGVTPPTDFIKGEDVFHAPYKAGQGWYDITKEFNGKDDLLCGAATAGNMLHWWFDQNKEYIEAYLKKHPEKQKIMFGDQELLDVRKAINTKGSQKNSELFNYFRDKAFPNLSARRLGVMPDLVLDMFINGYYLNVTKTQTTDVNRTYQEKDKRGGIFDAVFTRGDQSKLLTSRHDFKEKGLKEISDLIKQELTEGKALGLSHTYANVRIGHVINLWGADFDSDGNLKAIYVTDSDSNASIGMKKYGVGVNSAGKVAISAKEIKEDNIGAQVLGLFTLSTGQDIWNQTN | 0
* PRT-322 (protein) MTITSVWTKGVTPPTPEDFRENNEDVLHAPYVANQGWYDITKTFDGKDNLLCGAATAGNMLHWWFDQNKEEIERYLKKHPEKQKIIFNNQELFDVKAAIDTKDSQTNSKLFDYFRDKAFPNLSARQLGVMPDLVLDMFINGYYLNLGKTQSTDVNRPYQDKDKRGGIFDAVFTRGDQTTLLTARHDLKNKGLNEISDLIKQELTEGKALALSHTYANVRINHVINLWGADFDAEGNLIAIYVTDSDANASIGMKKYFVGRNANGKVAISAKKIEGDNIGAQVLGLFTLSTGQDQWQKLS | 0

In the following, a different protein is considered.
Prompt line: Fill blank: measured Enzyme Activity Endpoint Assay (purified): scIgG of the protein PRT-313 (protein) MQITSVWTKGVTPLTPEQFRENNEDVIHAPYLAHQGWYDITKAFDGKDNLLCGAATAGNMLHWWFDQNKTEIEAYLSKHPEKQKIIFGNQELFDLKAAIDTKDSQTNSQLFDYFRDKAFPNLSARQLGVMPDLVLDMFINGYYLNVGKTQSTDVNRPYQDKDKRGGIFDAVFTRGDQTTLLTARHDLKNKGLNDISTIIKQELTEGRALALSHTYANVSISHVINLWGADFNAEGELEAIYVTDSDANPSIGMKKYFVGRNAHGHVAISAKKIEGENIGAQVLGLFTLSSGKDIWQKLS is ____.
Response line: 328
